- Target of assay: T1, Biotinylated CD96 antigen (human, UniProt P40200-2 22-503, limits assumed, biotinylated)
- T1 sequence (looked up): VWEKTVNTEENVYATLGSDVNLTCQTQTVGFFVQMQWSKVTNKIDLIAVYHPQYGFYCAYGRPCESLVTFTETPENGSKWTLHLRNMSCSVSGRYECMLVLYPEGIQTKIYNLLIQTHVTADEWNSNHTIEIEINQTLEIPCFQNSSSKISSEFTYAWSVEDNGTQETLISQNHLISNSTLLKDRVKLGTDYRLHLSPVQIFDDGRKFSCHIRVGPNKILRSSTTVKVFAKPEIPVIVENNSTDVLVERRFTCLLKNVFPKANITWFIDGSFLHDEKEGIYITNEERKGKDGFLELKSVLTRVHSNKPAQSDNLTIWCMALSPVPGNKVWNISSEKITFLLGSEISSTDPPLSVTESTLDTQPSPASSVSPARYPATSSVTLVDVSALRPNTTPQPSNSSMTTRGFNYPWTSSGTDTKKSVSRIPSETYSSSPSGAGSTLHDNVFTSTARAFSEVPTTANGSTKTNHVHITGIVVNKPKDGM
- Measurement protocol: competition ELISA, antibody B premixed with biotinylated CD96; competitor (coated antibody A): h1721-003
Record form. Attribute: competition (percent). Fill in for each entry.
# value in %; strip the unit string

Task item: Please report competition (percent) for the following binder: h1719-014 (antibody, V domains shown, Only variable regions are tied to this name; also called M719-014) VH: EVTLKESGPVLVKPTETLTLTCTVSGFSLSSYGVSWVRQPPGKGLEWLGVIWGDGNTNYHSVLISRLTISKDTSKSQVVLTLTNMDPVDTATYYCAKNYYYGSRYGYPLDYWGQGTTVTVSS VL: DIQMTQSPSSVSASVGDRVTITCKATQDVGTAVAWYQQKPGKSPKLLIYWASTRHTGVPERFSGSGSGTDFTLTISSLQPEDFATYFCQQYGSSVLTFGGGTKVEIK
Reply: 84.6

Task item: Please report competition (percent) for the following binder: ch1720 (antibody, human IgG4 S228P, kappa, V domains shown, also called chimeric antibody corresponding to m1720) VH: EFQLQQSGPELVKPGASVKISCKASAYSLTDYNMNWVKQSNGKSLEWIGVINPSYGISSYNQKFKGKATLTVDQSSSTAYMHLNSLTSEDSAVYYCARQLRLPGYFDVWGTGTTVTVSS VL: DIKMTQSPSSKNASLGERVTITCKASQDINSYLNWFQQKPGKSPKTLIYRASRLVDGVPSRFSGSGSGQDYSLTISSLEYEDMGIYYCLKYDEFPYTFGGGTKLEIKR
Reply: 98.7

Task item: Please report competition (percent) for the following binder: h1721-003 (antibody, V domains shown, Only variable regions are tied to this name; also called M721-003) VH: EVTLKESGPVLVKPTETLTLTCTVSGFSLSSYGVNWIRQPPGKALEWLGVIWGDGSTNYHSALISRLTISKDTSKSQVVLTLTNMDPVDTATYYCAKNYFYGSRYGYAMDSWGQGTTVTVSS VL: DIQMTQSPSSLSASVGDRVTITCRASENIYSSLAWYQQKPGKAPKLLIYNAKTLIEGVPSRFSGSGSGTDFTLTISSLQPEDFATYYCQHHYGTPYTFGGGTKVEIK
Reply: 100

Task item: Please report competition (percent) for the following binder: h1722-010 (antibody, V domains shown, Only variable regions are tied to this name; also called M722-010) VH: EVQLVQSGAEVKKPGSSVKVSCKASGGTFSDYWMHWVRQAPGQGLEWIGMLHPNSGTTSFNEKFKIRVTITADKSTSTAYMELSSLRSEDTAVYYCASDYSGPFAYWGQGTLVTVSS VL: DIQLTQSPSSLSASVGDRVTITCSASSSVNYIHWYQQKPGKAPKRWIFDTSKLASGVPSRFSGSGSGTDYTLTISSLQPEDFATYYCQQWRSNPLTFGQGTKLEIK
Reply: -8.5

Task item: Please report competition (percent) for the following binder: h1718-012 (antibody, V domains shown, Only variable regions are tied to this name) VH: EVQLVQSGAEVKKPGASVKVSCKASGYTITDYNMNWVRQAPGQRLEWIGVINPSYGITDYNQNFKDRVTITVDTSASTAYMELSSLRSEDTAVYYCAIQLRLPGYFDVWGQGTTVTVSS VL: DIQMTQSPSSLSASVGDRVTITCKASQDINQYLNWFQQKPGKAPKTLIYRANRLVDGVPSRFSGSGSGQDYTLTISSLQPEDFATYYCLKYDEFPYTFGGGTKVEIK
Reply: 103
